Reference source for all entries: paper PMC11951083

# target: MAGL (Homo sapiens, UniProt Q99685)
# Sequence (Q99685 whole entry): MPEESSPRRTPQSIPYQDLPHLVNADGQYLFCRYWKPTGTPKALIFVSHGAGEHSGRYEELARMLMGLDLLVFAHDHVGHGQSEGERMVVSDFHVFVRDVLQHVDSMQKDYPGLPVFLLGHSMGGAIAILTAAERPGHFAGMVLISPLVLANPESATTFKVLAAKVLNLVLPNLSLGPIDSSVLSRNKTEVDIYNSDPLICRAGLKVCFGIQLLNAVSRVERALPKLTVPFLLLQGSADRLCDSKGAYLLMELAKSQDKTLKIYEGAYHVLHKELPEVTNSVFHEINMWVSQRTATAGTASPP
# experimental-details: Competitive FP binding assay with probe 5 as tracer
# experimental-context: 5 (20 nM), hMAGL (50 nM), irreversible inhibitors time-dependent
readout-label: pKi
Hey, just a heads up that pKi is the negative log base 10 of the concentration in molar.

Q: Assign pKi to the following record: O=C(O[C@H](CO)C(F)(F)F)N1C[C@@H]2C(c3ccn(-c4ccc(F)cc4)n3)[C@@H]2C1 (stereo partly shown) [PF-06795071]
Result: 7.89

* * *

Record form. Attribute: inhibition at 10 µM. Fill in for each entry.
# target: UniProt P28223
# Sequence (P28223 whole entry): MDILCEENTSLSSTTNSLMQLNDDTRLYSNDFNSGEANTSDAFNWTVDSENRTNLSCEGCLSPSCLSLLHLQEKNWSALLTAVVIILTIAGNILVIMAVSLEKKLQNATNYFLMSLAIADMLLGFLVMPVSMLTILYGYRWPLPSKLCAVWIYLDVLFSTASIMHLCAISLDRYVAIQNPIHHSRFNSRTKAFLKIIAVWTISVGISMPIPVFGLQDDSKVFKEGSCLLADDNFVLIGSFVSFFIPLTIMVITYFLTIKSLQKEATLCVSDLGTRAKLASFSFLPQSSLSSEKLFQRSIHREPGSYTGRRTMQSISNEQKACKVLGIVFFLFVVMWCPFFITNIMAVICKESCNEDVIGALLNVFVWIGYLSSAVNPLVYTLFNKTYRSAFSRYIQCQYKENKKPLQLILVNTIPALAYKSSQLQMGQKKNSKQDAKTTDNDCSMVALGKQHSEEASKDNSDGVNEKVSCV
# experimental-details: 5-HT2A (h) (agonist radioligand)
# experimental-context: read-out: Inhibition 5-HT2A (h) (agonist radioligand)
Report only the number, with the unit % understood.

Q: Report inhibition at 10 µM for "O=C1CO[C@H]2CCN(C(=O)N3CC4(CC(CC5=C6C=CC(c7ccc[nH]7)=[N+]6[B-](F)(F)n6cccc65)C4)C3)C[C@H]2N1"
Result: 18.5

Q: Identify measured inhibition at 10 µM associated with "O=C(OC(C(F)(F)F)C(F)(F)F)N1CC2(CC(CC3=C4C=CC=[N+]4[B-](F)(F)n4cccc43)C2)C1"
Result: -36.2

Q: Indicate its recorded inhibition at 10 µM; the molecule in question is "O=C(OC(C(F)(F)F)C(F)(F)F)N1CC2(CC(CC3=C4C=CC(c5ccc[nH]5)=[N+]4[B-](F)(F)n4cccc43)C2)C1"
Result: -6.8

Q: Let me know recorded inhibition at 10 µM for "O=C(N1CC2(CC(CC3=C4C=CC=[N+]4[B-](F)(F)n4cccc43)C2)C1)N1CC2(CC(n3cnc(C4CC4)n3)C2)C1" , thanks.
Result: -9.2

Q: Tell me its inhibition at 10 µM given "O=C(O[C@H](CO)C(F)(F)F)N1CC2(CC(CC3=C4C=CC=[N+]4[B-](F)(F)n4cccc43)C2)C1" as the entry.
Result: -13.2
